Test system: HOP-62 NSCLC
Method notes: NCI-60 one-dose screen, 48 h
Condition info: 10 µM unless noted
About 83,000 compounds went through this panel and 20% of them were active in at least one assay; those are over-represented in the sample as a whole. Activity calls are given as the source filed them. Rule for the calls: active = growth percent below 10; inactive = the rest.
Possible outcomes: true (1) = active, false (0) = inactive

>>> assigned_class("CC/C=C\\C[C@H](O)C/C=C1/C(=O)C=C[C@@H]1C/C=C\\CCCC(=O)NC(C)C")
"true (1)"
>>> assigned_class("Nc1nc2c(c3ncccc13)C(c1ccc(Cl)c(Cl)c1)Cc1ncccc1-2 (stereo unspecified)")
"false (0)"
>>> assigned_class("C/C=C/C(N)=O")
"false (0)"
>>> assigned_class("O=[N+]([O-])c1cccc(-c2nc3sccn3c2-c2ccnc(NCCCNS(=O)(=O)c3cccc(F)c3)n2)c1")
"false (0)"
>>> assigned_class("COc1cnc2c(c1)C(=O)c1c-2n(CCCN2CCCC2)c(=O)c2cc([N+](=O)[O-])ccc12")
"true (1)"
>>> assigned_class("CC(=O)Oc1cc2cnc3c4cc(OC(C)=O)c(OC(C)=O)cc4ccc3c2cc1OC(C)=O")
"false (0)"
>>> assigned_class("CC(C)c1c(C(=O)Nc2ccccc2)c(-c2ccccc2)c(-c2ccc(F)cc2)n1CC[C@@H]1CC=CC(=O)O1")
"false (0)"
>>> assigned_class("O=C(/C=C/c1ccc(Cl)cc1)/C=C/c1cc2ccccc2[nH]c1=O")
"false (0)"
>>> assigned_class("COc1cccc(/C=C2/C(=O)N(Cc3ccco3)SC2=S)c1OC")
"false (0)"
>>> assigned_class("Clc1nc(Cl)c2c3c(sc2n1)CCCC3")
"false (0)"
>>> assigned_class("Cc1ccc(-c2nc(/C=N/Nc3cc(C)nc4ccc(Br)cc34)c(C)o2)cc1")
"false (0)"
>>> assigned_class("CNc1cc2nc3cc(NC)c(C)cc3cc2cc1C")
"false (0)"
>>> assigned_class("Oc1c(Cl)cc(Cl)cc1CNc1nccnn1")
"false (0)"
>>> assigned_class("O=c1c2cccc3c(Nc4c(F)cccc4F)ccc(c32)c2nc3ccccc3n12")
"false (0)"
>>> assigned_class("COc1ccc(S(=O)(=O)NCCCNc2cc(-c3c(-c4cccc(OC)c4)nc4sccn34)ccn2)cc1")
"false (0)"
>>> assigned_class("COc1cnc2c(c1)C(=O)c1c-2n(CCCN2CCN(C)CC2)c(=O)c2cc([N+](=O)[O-])ccc12")
"true (1)"
>>> assigned_class("O=C(/C=C\\c1ccc2ccccc2n1)c1cc(Cl)ccc1O")
"false (0)"
>>> assigned_class("CS(=O)(=O)c1c(Nc2ccccc2)n[nH]c1N")
"false (0)"
>>> assigned_class("CN(C)c1ccc(C2Nc3ccccc3-n3cccc32)cc1 (stereo unspecified)")
"false (0)"
>>> assigned_class("CC(C)(C)c1nn(-c2ccccc2)c2c1CC1(CN2Cc2ccc3c(c2)OCO3)C(=O)c2ccccc2C1=O")
"false (0)"
>>> assigned_class("C=C1CCC2C3(C)COC(c4ccccc4Br)OC3CCC2(C)C1C/C=C1/C(=O)OCC1OC(C)=O (stereo unspecified)")
"false (0)"

---

Tested on: T-47D breast
Method notes: NCI-60 one-dose screen, 48 h (100 = growth as untreated, 0 = no growth, -100 = all killed)
Condition info: 10 µM unless noted
Procedure: Growth inhibition of the T-47D human tumor cell line is measured as a screen for anti-cancer activity. Cells are grown in 96 well plates and exposed to the test compound for 48 hours. Compounds are tested at a single concentration, which is 10^-5 M for most compounds. The reported endpoint is percent growth (GI% or GIPRCNT), where numbers from 0 - 100% represent growth inhibition, and numbers from -100% - 0 represent cell death. For example, a value of 40 represents 60% growth inhibition. […]
This is part of a sample that, as a whole, favours compounds with a hit. Of some 83,000 tested, about 20% had one in any assay.
The following compounds are listed with their measured growth values.
Measurement label: growth (%)

>>> quantitative_result("COc1cc(/C=C2\\CN(C(=O)CCN3CCC(=NO)CC3)C/C(=C\\c3cc(OC)c(OC)c(OC)c3)C2=O)cc(OC)c1OC")
4.37
>>> quantitative_result("CC(=O)/C(=C/c1cccc(Cl)c1)C(=O)c1ccccc1")
63.6
>>> quantitative_result("O=C([C@@H](COCc1ccccc1)N1C(=O)[C@@H](N2C(=O)OC[C@@H]2c2ccccc2)[C@H]1/C=C/c1ccccc1)N1CCC(CCN2CCCCC2)CC1")
77.2
>>> quantitative_result("c1c2c(cc3c1OCO3)Cc1cc3c(cc1Cc1cc4c(cc1C2)OCO4)OCO3")
108
>>> quantitative_result("OCC1C2C=CC(C2)C1CO (stereo not given)")
153

---

System: MCF7 breast
Method notes: NCI-60 one-dose screen, 48 h
Condition info: 10 µM unless noted
The panel holds about 83,000 compounds, 20% with a hit somewhere; the sample as a whole holds those more often. Calls of active or inactive are those of the source. The calls were made as follows: active = growth percent below 10; inactive = the rest.
Possible outcomes: active, inactive

>>> assigned_class("OC(c1cccc(C(F)(F)F)c1)c1cnccc1NC1CCCCCC1 (stereo unspecified)")
"active"
>>> assigned_class("O=C(/C=C/c1ccc(B(O)O)cc1)/C=C/c1ccc(B(O)O)cc1")
"active"
>>> assigned_class("Cc1[nH]n(-c2ccccc2)c2nc3nncc3c(-c3ccc(Cl)cc3)c12")
"inactive"
>>> assigned_class("CCC(=O)OCc1cccc(OC)c1")
"inactive"
>>> assigned_class("CCCCCCCCCCCCCC(=O)C(C)N (stereo unspecified)")
"inactive"
>>> assigned_class("O=C1c2cc3c(cc2-c2c1c1cc(Cl)c(Cl)cc1c(=O)n2CCCn1ccnc1)OCO3")
"active"
>>> assigned_class("CC1CN(Cc2ccco2)C(=S)N(c2ccccc2)C1=O (stereo unspecified)")
"inactive"
>>> assigned_class("COc1ccc(/C=C/C(=O)c2ccc(NC(=O)c3cc4cc5ccccc5nc4s3)cc2)cc1OC")
"inactive"
>>> assigned_class("CC(=O)N1CC(Nc2ccc(OC(F)(F)F)cc2)=CC1=O")
"inactive"
>>> assigned_class("CC1(C)CC(=O)C(c2c(-c3ccccc3)[nH]c3[nH]c(=S)[nH]c(=O)c23)=C(O)C1")
"inactive"
>>> assigned_class("C=C1C(=O)O[C@H]2[C@H]1CC/C(Cn1cc(Cn3ccc4ccccc43)nn1)=C\\CC[C@@]1(C)O[C@@H]21")
"active"

---

System: HCT-15 colon
Method notes: NCI-60 one-dose screen, 48 h
Condition info: 10 µM unless noted
The panel holds about 83,000 compounds, 20% with a hit somewhere; the sample as a whole holds those more often. Calls of active or inactive are those of the source. How the source made its calls: active means growth percent below 10; inactive means the rest.
Possible outcomes: TRUE (active), FALSE (inactive)

>>> assigned_class("CSc1ccc(N=C=C(c2ccccc2)c2ccccc2)cc1")
"FALSE"
>>> assigned_class("CC1=C(C)C(=O)OC([C@](C)(O)[C@]2(O)CC[C@@]3(O)[C@@H]4C[C@H]5O[C@]56CC=CC(=O)[C@]6(C)[C@H]4CC[C@]23COC(=O)c2ccc(C)o2)C1 (some centres undefined)")
"TRUE"
>>> assigned_class("Cc1nc2nc(N)nc(N)c2nc1C")
"FALSE"
>>> assigned_class("CN1CCN(Cc2ccc(NC(=O)c3[nH]ncc3Nc3ccnc4ccsc34)cc2)CC1")
"FALSE"
>>> assigned_class("C(=N\\Nc1nnn(Cc2ccccc2)n1)/c1ccccc1")
"FALSE"
>>> assigned_class("O=C(/C=C/c1ccc(B(O)O)cc1)/C=C/c1ccc(B(O)O)cc1")
"TRUE"
>>> assigned_class("O=C(C[C@@H](C(=O)NCc1cccc(C(F)(F)F)c1)N1C(=O)[C@@H](N2C(=O)OC[C@@H]2c2ccccc2)[C@H]1/C=C/c1ccccc1)NC1CCN(Cc2ccccc2)CC1")
"FALSE"
>>> assigned_class("O=S(=O)(Nc1ccc(Cl)cc1Cl)c1ccc(-c2cnc(C3CC3)o2)cc1")
"FALSE"
>>> assigned_class("N=c1c2ccccc2nc2n1CCCCC2")
"FALSE"

---

Test system: SNB-75 CNS
Method notes: NCI-60 one-dose screen, 48 h (100 = growth as untreated, 0 = no growth, -100 = all killed)
Condition info: 10 µM unless noted
The panel holds about 83,000 compounds, 20% with a hit somewhere; the sample as a whole holds those more often.
Use 50% as the dividing line for growth, with the line itself on the Fulfilled side and lower values as Not fulfilled.

>>> assigned_class("Cc1ccc2c(c1)C(=O)c1c-2c(OCCCN(C)C)nc2ccccc12")
"Not fulfilled"
>>> assigned_class("Cc1ccc(N)cc1F")
"Fulfilled"
>>> assigned_class("ClC1=C2NC=NC2n2c(nnc2-c2ccc(Cl)cc2)N1 (configuration not stated)")
"Fulfilled"
>>> assigned_class("O=C(O)c1cccnc1Br")
"Fulfilled"
>>> assigned_class("C=CC[N+]1(CC)CCN=C1CCCCCCCCCCCCCCCCC (configuration not stated)")
"Not fulfilled"
>>> assigned_class("CCOC(=O)Cc1cnn(C)c1NC(=O)c1ccc(Cl)cc1NC(C)=O")
"Fulfilled"
>>> assigned_class("COc1c(Cl)cc(Cl)cc1Cl")
"Fulfilled"
>>> assigned_class("CCN(C(=O)CN1CCN(c2cc3c(cc2F)c(=O)c(C(=O)O)cn3C2CC2)CC1)c1nc(-c2ccc(OC)cc2)cs1")
"Fulfilled"
>>> assigned_class("O=C1c2cc3c(cc2-c2c1c1cc(Cl)c(Cl)cc1c(=O)n2CCCn1ccnc1)OCO3")
"Not fulfilled"
>>> assigned_class("O=c1[nH]c(-c2ccccn2)nc2sc3c(c12)CCCCC3")
"Fulfilled"
>>> assigned_class("Cc1ccc2c(NCCCN(C)C)c3c(C)nn(C)c3nc2c1")
"Not fulfilled"

Origin of measurements: PubChem BioAssay (NCI)
